Test system: 855422-203-R-J1-PDC complex spheroid growth
experiment_notes: Anticancer human tumor 855422-203-R-J1-PDC patient-derived bladder carcinoma cell line growth inhibition [AhR]; active means viability on the fitted dose curve at most 10% of control; inactive means the rest
condition: second compound 10 µM; first compound 3.16 µM
Possible outcomes: True = active, False = inactive

compound	assigned_class
O=C(C=Cc1cccc(S(=O)(=O)Nc2ccccc2)c1)NO + Cc1ccccc1N=Nc1ccc(NC(=O)c2ccnn2C)c(C)c1	False
COc1cccc2c1C(=O)c1c(O)c3c(c(O)c1C2=O)CC(O)(C(=O)CO)CC3OC1CC(N)C(O)C(C)O1 (stereo unspecified) + Cc1cncc(-c2nc(NCCc3c[nH]c4ccccc34)c3ncn(C(C)C)c3n2)c1	True
CC1COCCN1c1cc(C2(S(C)(=N)=O)CC2)nc(-c2ccnc3[nH]ccc23)n1 (stereo unspecified) + Cc1cncc(-c2nc(NCCc3c[nH]c4ccccc34)c3ncn(C(C)C)c3n2)c1	True
COc1cc(Nc2ncc3c(n2)-c2ccc(Cl)cc2C(c2c(F)cccc2OC)=NC3)ccc1C(=O)O + Cc1ccccc1N=Nc1ccc(NC(=O)c2ccnn2C)c(C)c1	False
COc1cc(C2c3cc4c(cc3C(OC3OC5COC(C)OC5C(O)C3O)C3COC(=O)C23)OCO4)cc(OC)c1O (stereo unspecified) + CC(CO)NC(=O)c1cc(-c2ccc(Cl)cc2)nn(-c2cnn(C)c2)c1=O	True
CC1COCCN1c1cc(C2(S(C)(=N)=O)CC2)nc(-c2ccnc3[nH]ccc23)n1 (stereo unspecified) + CC(CO)NC(=O)c1cc(-c2ccc(Cl)cc2)nn(-c2cnn(C)c2)c1=O	False
O=C(c1cc(Cc2n[nH]c(=O)c3ccccc23)ccc1F)N1CCN(C(=O)C2CC2)CC1 + Cc1ccccc1N=Nc1ccc(NC(=O)c2ccnn2C)c(C)c1	False
NS(=O)(=O)OCC1CC(n2ccc3c(NC4CCc5ccccc54)ncnc32)CC1O (stereo unspecified) + Cc1cncc(-c2nc(NCCc3c[nH]c4ccccc34)c3ncn(C(C)C)c3n2)c1	True
COc1cccc2c1C(=O)c1c(O)c3c(c(O)c1C2=O)CC(O)(C(=O)CO)CC3OC1CC(N)C(O)C(C)O1 (stereo unspecified) + Cc1ccccc1N=Nc1ccc(NC(=O)c2ccnn2C)c(C)c1	True
COc1cc(C2c3cc4c(cc3C(OC3OC5COC(C)OC5C(O)C3O)C3COC(=O)C23)OCO4)cc(OC)c1O (stereo unspecified) + Cc1cncc(-c2nc(NCCc3c[nH]c4ccccc34)c3ncn(C(C)C)c3n2)c1	True
CC1(C)CCC(CN2CCN(c3ccc(C(=O)NS(=O)(=O)c4ccc(NCC5CCOCC5)c([N+](=O)[O-])c4)c(Oc4cnc5[nH]ccc5c4)c3)CC2)=C(c2ccc(Cl)cc2)C1 + Cc1ccccc1N=Nc1ccc(NC(=O)c2ccnn2C)c(C)c1	False

* * *

Test system: 855422-203-R-J1-PDC complex spheroid growth
experiment_notes: Anticancer human tumor 855422-203-R-J1-PDC cell line growth inhibition [AhR]; active = viability on the fitted dose curve at most 10% of control; inactive = the rest;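 further: spheroids exposed to agents for seven days before readout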
condition: second compound 10 µM; first compound 3.16 µM
Possible outcomes: true = active, false = inactive

compound	assigned_class
CC(C)c1c(-c2ccccc2)nc2c(C#N)c[nH]n2c1=O + CC(CO)NC(=O)c1cc(-c2ccc(Cl)cc2)nn(-c2cnn(C)c2)c1=O	false
COc1cc(Nc2ncc3c(n2)-c2ccc(Cl)cc2C(c2c(F)cccc2OC)=NC3)ccc1C(=O)O + CC(CO)NC(=O)c1cc(-c2ccc(Cl)cc2)nn(-c2cnn(C)c2)c1=O	false
CC(C)c1c(-c2ccccc2)nc2c(C#N)c[nH]n2c1=O + Cc1cncc(-c2nc(NCCc3c[nH]c4ccccc34)c3ncn(C(C)C)c3n2)c1	true
